molecular target: WT-ThaPK (Thermoplasma acidophilum, UniProt P32044); construct: gene Ta0896; full length (1635 bp gene, 544 residues), N-terminal His6 tag and thrombin site (20 residues) kept, pET15b, E. coli BL21(DE3) Codon Plus-RIL; experiment: LDH/NADH coupled assay, dead-end inhibition, global fit; type: biochemical; conditions: read-out: Ki (Oxalate)
Sequence (P32044 whole entry): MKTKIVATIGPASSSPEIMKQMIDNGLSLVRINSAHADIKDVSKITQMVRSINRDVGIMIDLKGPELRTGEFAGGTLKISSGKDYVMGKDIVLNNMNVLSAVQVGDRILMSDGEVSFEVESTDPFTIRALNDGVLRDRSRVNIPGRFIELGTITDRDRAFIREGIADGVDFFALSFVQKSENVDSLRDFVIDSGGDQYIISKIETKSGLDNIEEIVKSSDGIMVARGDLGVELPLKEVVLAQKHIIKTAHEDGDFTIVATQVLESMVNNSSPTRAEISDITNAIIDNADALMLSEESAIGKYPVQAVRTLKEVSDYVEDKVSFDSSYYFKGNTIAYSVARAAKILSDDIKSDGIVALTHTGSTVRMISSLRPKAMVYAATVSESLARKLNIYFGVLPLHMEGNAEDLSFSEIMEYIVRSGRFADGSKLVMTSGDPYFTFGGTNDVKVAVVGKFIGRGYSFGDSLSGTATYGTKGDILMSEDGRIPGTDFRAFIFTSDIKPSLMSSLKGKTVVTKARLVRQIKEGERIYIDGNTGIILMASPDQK
ENDPOINT_LABEL: pKi
By convention, pKi is the negative base-10 log of a molar concentration.

// query Form field: reported pKi of O=C(O)C(=O)O [oxalate]
// result 4.36

* * *

molecular target: WT-ThaPK (Thermoplasma acidophilum, UniProt P32044); construct: gene Ta0896; full length (1635 bp gene, 544 residues), N-terminal His6 tag and thrombin site (20 residues) kept, pET15b, E. coli BL21(DE3) Codon Plus-RIL; assay: LDH/NADH coupled assay, dead-end inhibition, global fit; type: biochemical; settings: read-out: Ki (AMP)
ENDPOINT_LABEL: Ki (mM)
State just the number; it will be interpreted in mM.

// query What value of measured Ki is listed for Nc1ncnc2c1ncn2[C@@H]1O[C@H](COP(=O)(O)O)[C@@H](O)[C@H]1O ?
// result 3.3
